target under test: BCL6 (Homo sapiens (Human))
test name: Immunofluorescence high content imaging of BCL6 degradation in T47D cells
Assay type: cell-based
particulars: T47D
Provide the recorded Dmax for the entries that follow.

compound: CNC(=O)COc1cc2cc(Nc3nc(N4CCN(CC5CC6(CCN(c7cccc8c7C(=O)N(C7CCC(=O)NC7=O)C8=O)CC6)C5)CC4)ncc3Cl)ccc2n(C(C)C)c1=O (centres unmarked)
reported: ≥ 70%
--
compound: CNC(=O)COc1cc2cc(Nc3nc(N4CCC(O[C@H]5C[C@H](COc6ccc7c(c6)C(=O)N(C6CCC(=O)NC6=O)C7=O)N(C)C5)CC4)ncc3Cl)ccc2n(C(C)C)c1=O (some centres unmarked)
reported: ≥ 70%
--
compound: CC(=O)COc1cc2cc(Nc3nc(C#CC4CCN(c5cccc6c5C(=O)N(C5CCC(=O)NC5=O)C6=O)CC4)ncc3Cl)ccc2n(C)c1=O (centres unmarked)
reported: 50 to 70%
--
compound: CNC(=O)COc1cc2cc(Nc3nc(N4CCN(CC5CCN(c6cccc7c6C(=O)N(C6CCC(=O)NC6=O)C7=O)CC5)CC4)ncc3Cl)ccc2n(CCOC)c1=O (centres unmarked)
reported: ≥ 70%
--
compound: CCn1c(=O)c(OCC(=O)NC)cc2cc(Nc3nc(N4CCN(C(C)(C)C5CCN(c6ccc7c(c6)C(=O)N(C6CCC(=O)NC6=O)C7=O)CC5)CC4)ncc3Cl)ccc21 (centres unmarked)
reported: ≥ 70%
--
compound: CNC(=O)COc1cc2cc(Nc3nc(N4CCC5(CC4)CN(CC4CCN(c6cccc(C(=O)NC7CCC(=O)NC7=O)c6F)CC4)C5)ncc3Cl)ccc2n(C(C)C)c1=O (centres unmarked)
reported: ≥ 70%
--
compound: CNC(=O)COc1cc2cc(Nc3nc(N4CCC(CN5CC6(C5)CN(c5ccc7c(c5)C(=O)N(C5CCC(=O)NC5=O)C7=O)C6)CC4)ncc3Cl)ccc2n(C(C)C)c1=O (centres unmarked)
reported: ≥ 70%
--
compound: CNC(=O)COc1cc2cc(Nc3nc(N4CCC(CN5CCC(c6cc(OC)cc(C(=O)NC7CCC(=O)NC7=O)c6F)CC5)CC4)ncc3Cl)ccc2n(C(C)C)c1=O (centres unmarked)
reported: ≥ 70%
--
compound: CNC(=O)COc1cc2cc(Nc3nc(N4CCOC(COc5cccc6c5C(=O)N(C5CCC(=O)NC5=O)C6=O)C4)ncc3Cl)ccc2n(C)c1=O (centres unmarked)
reported: < 50%
--
compound: CNC(=O)COc1cc2cc(Nc3nc(N4CCN(CC5CCN(c6cnc(C(=O)NC7CCC(=O)NC7=O)cn6)CC5)CC4)ncc3Cl)ccc2n(C)c1=O (centres unmarked)
reported: < 50%

Proceed to the following item.
Which Dmax value belongs to CNC(=O)COc1cc2cc(Nc3nc(N4CCC(N5CCC6(CCN(c7ccc8c(c7)C(=O)N(C7CCC(=O)NC7=O)C8=O)C6)CC5)CC4)ncc3Cl)ccc2n(C(C)C)c1=O (centres unmarked) ?
≥ 70%

---

target under test: BCL6 (Homo sapiens (Human))
test name: Immunofluorescence high content imaging of BCL6 degradation in T47D cells
Type: cell-based
particulars: T47D cells
Provide the recorded IC50 for the entries that follow.

# example entries with known answers
compound: CNC(=O)COc1cc2cc(Nc3nc(N4CCC(CN5CC6(CCN(c7ccc8c(c7)C(=O)N(C7CCC(=O)NC7=O)C8=O)CC6)C5)CC4)ncc3Cl)ccc2n(C(C)C)c1=O (centres unmarked)
IC50: < 10 nM
//
compound: CCn1c(=O)c(OCC(=O)NC)cc2cc(Nc3nc(N4CCC(CN5CCC(c6ccc7c(c6)C(=O)N(C6CCC(=O)NC6=O)C7=O)CC5)CC4)ncc3Cl)ccc21 (centres unmarked)
IC50: 10 to 50 nM
//
compound: CNC(=O)COc1cc2cc(Nc3nc(N4CCC(CN5CCC6(CC5)CN(c5ccc7c(c5)C(=O)N(C5CCC(=O)NC5=O)C7=O)C6)CC4)ncc3Cl)ccc2n(C(C)C)c1=O (centres unmarked)
IC50: < 10 nM
//
compound: CCOc1cc(N2CCC(CN3CCN(c4ncc(Cl)c(Nc5ccc6c(c5)cc(OCC(=O)NC)c(=O)n6C)n4)CC3)CC2)ccc1C(=O)NC1CCC(=O)NC1=O (centres unmarked)
IC50: < 10 nM

# per-item lookup of IC50; items listed below
1. CNC(=O)COc1cc2cc(Nc3nc(N4CCC(CN5CCC(c6ccc(C(=O)NC7CCC(=O)NC7=O)o6)CC5)CC4)ncc3Cl)ccc2n(C)c1=O (centres unmarked)
2. CNC(=O)COc1cc2cc(Nc3nc(N4CCC5(CC4)CC(OC4CCN(c6cccc7c6C(=O)N(C6CCC(=O)NC6=O)C7=O)CC4)C5)ncc3Cl)ccc2n(C(C)C)c1=O (centres unmarked)
3. CNC(=O)COc1cc2cc(Nc3nc(N4CCN(CC5CCN(c6ccc(C(=O)NC7CCC(=O)NC7=O)[n+]([O-])c6)CC5)CC4)ncc3Cl)ccc2n(C)c1=O (centres unmarked)
4. CNC(=O)COc1cc2cc(Nc3nc(N4CCC(CN5CCC(c6cccc7c6C(=O)N(C6CCC(=O)NC6=O)C7=O)CC5)CC4)ncc3Cl)ccc2n(C(C)C)c1=O (centres unmarked)
5. CNC(=O)COc1cc2cc(Nc3nc(N4CCN(CC5CCN(c6cnc(C(=O)NC7CCC(=O)NC7=O)c(OC)c6)CC5)CC4)ncc3Cl)ccc2n(C)c1=O (centres unmarked)
6. CCCn1c(=O)c(OCC(=O)NC)cc2cc(Nc3nc(N4CCN(CC5CCN(c6ccc7c(c6)C(=O)N(C6CCC(=O)NC6=O)C7=O)CC5)CC4)ncc3Cl)ccc21 (centres unmarked)
7. CNC(=O)COc1cc2cc(Nc3nc(N4CCC(OC5CC6(C5)CN(c5cccc7c5C(=O)N(C5CCC(=O)NC5=O)C7=O)C6)CC4)ncc3Cl)ccc2n(C(C)C)c1=O (centres unmarked)

1. 10 to 50 nM
2. < 10 nM
3. ≥ 100 nM
4. < 10 nM
5. 10 to 50 nM
6. 10 to 50 nM
7. < 10 nM
